- tested_on: serotonin transporter (Homo sapiens, UniProt P31645)
- Sequence (P31645 whole entry): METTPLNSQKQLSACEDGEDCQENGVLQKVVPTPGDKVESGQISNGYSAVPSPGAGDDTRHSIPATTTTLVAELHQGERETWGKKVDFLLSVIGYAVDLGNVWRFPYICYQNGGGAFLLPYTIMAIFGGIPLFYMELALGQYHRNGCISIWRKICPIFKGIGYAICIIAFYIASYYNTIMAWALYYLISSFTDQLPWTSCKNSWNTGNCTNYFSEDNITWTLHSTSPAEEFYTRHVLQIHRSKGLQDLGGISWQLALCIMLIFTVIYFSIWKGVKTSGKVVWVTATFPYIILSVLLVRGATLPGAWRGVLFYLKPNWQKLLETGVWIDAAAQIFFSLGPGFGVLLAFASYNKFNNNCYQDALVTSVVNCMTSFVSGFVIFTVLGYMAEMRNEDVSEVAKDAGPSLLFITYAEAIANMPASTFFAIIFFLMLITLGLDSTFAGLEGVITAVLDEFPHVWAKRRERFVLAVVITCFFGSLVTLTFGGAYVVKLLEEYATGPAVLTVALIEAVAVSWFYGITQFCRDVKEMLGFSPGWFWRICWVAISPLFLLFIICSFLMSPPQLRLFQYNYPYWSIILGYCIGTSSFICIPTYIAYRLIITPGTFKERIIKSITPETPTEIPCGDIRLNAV
- test: 5-HT uptake: displacement of serotonin ligands in vitro (methods of Gu et al.)
- Type: binding
- condition_label: displacement of serotonin ligands in vitro; read-out: 5-HT Uptake, Uptake Profile (IC50)
IC50 values, listed per item

compound | IC50
Clc1ccc(C2(CN3CCCC(COc4ccc5c(c4)OCO5)C3)CCC2)cc1 (stereo not shown) | < 1000 nM
CO[C@@H](CN1CCC[C@@H](COc2ccc(C(F)(F)F)cc2)C1)C1(c2ccc(Cl)cc2)CCC1 | < 1000 nM
CC(C)(CN1CCCC(CO)C1)c1ccc(Cl)cc1 (stereo not shown) | > 1000 nM
OC(CN1CCCC(COc2ccc(C(F)(F)F)cc2)C1)C1(c2ccccc2OC(F)(F)F)CCC1 (single isomer, unassigned) [compound 224] | > 1000 nM

* * *

- tested_on: dopamine transporter (Homo sapiens)
- Sequence (Q01959 whole entry): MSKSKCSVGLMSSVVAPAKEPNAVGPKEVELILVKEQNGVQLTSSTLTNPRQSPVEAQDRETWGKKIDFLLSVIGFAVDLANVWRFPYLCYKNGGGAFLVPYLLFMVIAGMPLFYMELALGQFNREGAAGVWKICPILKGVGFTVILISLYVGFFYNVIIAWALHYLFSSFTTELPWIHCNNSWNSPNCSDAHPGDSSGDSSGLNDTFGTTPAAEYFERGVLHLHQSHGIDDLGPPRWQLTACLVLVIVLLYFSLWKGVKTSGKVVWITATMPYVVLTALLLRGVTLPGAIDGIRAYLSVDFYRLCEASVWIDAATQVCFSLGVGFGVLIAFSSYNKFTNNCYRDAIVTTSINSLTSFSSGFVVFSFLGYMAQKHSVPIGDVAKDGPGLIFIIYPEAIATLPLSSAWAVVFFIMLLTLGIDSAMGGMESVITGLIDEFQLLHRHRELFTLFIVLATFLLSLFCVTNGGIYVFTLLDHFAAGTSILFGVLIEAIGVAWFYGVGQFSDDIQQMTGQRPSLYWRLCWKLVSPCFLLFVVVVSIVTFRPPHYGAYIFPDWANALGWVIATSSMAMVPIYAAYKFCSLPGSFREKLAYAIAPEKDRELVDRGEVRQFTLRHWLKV
- test: DA uptake: displacement of dopamine ligands in vitro (methods of Gu et al.)
- condition_label: DA Uptake, Uptake Profile (IC50, nM), displacement of dopamine ligands in vitro
IC50 values, listed per item

compound | IC50
OC1(COc2ccc(C(F)(F)F)cc2)CCCN(CC2(c3ccc(Cl)cc3)CCC2)C1 (stereo not shown) | > 1000 nM
OC(CN1CCCC(COc2ccc(C(F)(F)F)cc2)C1)C1(c2ccc(Cl)cc2)CCC1 (stereo not shown) | < 10 nM
OC(CN1CCCC(COc2ccc(C(F)(F)F)cc2)C1)C1(c2ccc3c(c2)OCO3)CCC1 (stereo not shown) | < 10 nM
FC(F)(F)c1ccc(OCC2CN(CC3(c4ccc(Cl)cc4)CCC3)CCCO2)cc1 (stereo not shown) | < 1000 nM
FC(F)(F)c1ccc(OCC2CCCN(CCc3c[nH]c4ccccc34)C2)cc1 (stereo not shown) | < 1000 nM
OC(CN1CCCC(CCc2ccc(C(F)(F)F)cc2)C1)C1(c2ccc(Cl)cc2)CCC1 (single isomer, unassigned) [compound 194] | < 10 nM
CN(C)CC(Oc1ccc(C(F)(F)F)cc1)C1CCCN(C(=O)C2(c3ccc(Cl)cc3)CCC2)C1 (racemic) | > 1000 nM
FC(F)(F)c1ccc(OC2CCCN(CC3(c4ccc(Cl)cc4)CCC3)C2)cc1 (stereo not shown) | < 1000 nM
OC(CN1CCC[C@@H](CCc2ccccc2)C1)c1ccc(Cl)cc1 (stereo partly shown) | < 10 nM
COc1ccc(C2(CN3CCC[C@H](COc4ccc(OC(F)(F)F)cc4)C3)CCC2)cc1 | < 10 nM
OC(CN1CCCC(CCc2ccc(C(F)(F)F)cc2)C1)C1(c2ccc(Cl)cc2)CCC1 (single isomer, unassigned) [compound 195] | < 100 nM
OC(CN1CCCC(COc2ccc(C(F)(F)F)cc2)C1)c1ccc(Cl)cc1 (stereo not shown) | < 1000 nM
OC(CN1CCCC(COc2ccc(C(F)(F)F)cc2)C1)C1(c2ccccc2OC(F)(F)F)CCC1 (single isomer, unassigned) [compound 225] | < 10 nM
FC(F)(F)c1ccc(OC[C@@H]2CCCN(CC3(c4ccc(Cl)cc4)CCC3)C2)cc1 [compound 76] | < 1000 nM
FC(F)(F)c1ccc(OC[C@@H]2CCCN(CC3(c4ccc(Cl)cc4)CCC3)C2)cc1 [compound 114] | < 100 nM
O=C(N1CCCC(CO)C1)C1(c2ccc(Cl)cc2)CCC1 (stereo not shown) | > 1000 nM

* * *

IC50 values, listed per item
- tested_on: norepinephrine transporter (Homo sapiens)
- Sequence (P23975 whole entry): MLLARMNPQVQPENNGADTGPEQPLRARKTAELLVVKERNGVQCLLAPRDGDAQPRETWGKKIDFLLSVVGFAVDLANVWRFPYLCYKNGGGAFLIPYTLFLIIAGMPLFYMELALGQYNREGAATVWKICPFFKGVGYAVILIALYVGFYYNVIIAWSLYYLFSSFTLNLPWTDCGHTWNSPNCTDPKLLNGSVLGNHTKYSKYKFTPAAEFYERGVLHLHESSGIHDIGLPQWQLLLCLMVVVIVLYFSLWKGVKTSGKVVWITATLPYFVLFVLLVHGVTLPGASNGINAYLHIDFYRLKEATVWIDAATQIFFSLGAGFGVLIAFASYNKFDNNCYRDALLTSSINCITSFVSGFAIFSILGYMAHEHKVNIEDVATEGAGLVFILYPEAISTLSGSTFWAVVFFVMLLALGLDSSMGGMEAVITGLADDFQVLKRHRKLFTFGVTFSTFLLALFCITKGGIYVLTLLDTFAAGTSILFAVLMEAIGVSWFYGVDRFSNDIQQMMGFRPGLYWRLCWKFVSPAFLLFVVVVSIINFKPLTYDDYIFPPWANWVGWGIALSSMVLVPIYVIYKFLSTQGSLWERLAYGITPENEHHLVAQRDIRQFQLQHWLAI
- test: NE uptake: displacement of norephinephrine ligands in vitro (methods of Galli et al.)
- Format: binding
- condition_label: NE Uptake, Uptake Profile (IC50, nM)

compound | IC50
OC(CN1CCCC(CCc2ccccc2)C1)c1ccc(Cl)cc1 (single isomer, unassigned) [compound 143] | < 100 nM
OC(CN1CCCC(CCc2ccccc2)C1)c1ccc(Cl)cc1 (single isomer, unassigned) [compound 144] | < 100 nM
FC(F)(F)c1ccc(OCC2CN(CC3(c4ccc(Cl)cc4)CCC3)CCCO2)cc1 (centres unmarked) | > 1000 nM
Clc1ccc(C2(CN3CCCC(COc4ccc5c(c4)OCO5)C3)CCC2)cc1 (centres unmarked) | < 1000 nM
Clc1ccc(C2(CN3CCCC(CCc4ccccc4)C3)CCC2)cc1 (centres unmarked) | < 100 nM
O[C@@H](CN1CCC[C@@H](COc2ccc(C(F)(F)F)cc2)C1)C1(c2ccc(Cl)cc2)CCC1 | < 100 nM
Clc1ccc(C2(CN3CCC[C@H](COc4ccc5c(c4)OCO5)C3)CCC2)cc1 | < 1000 nM
FC(F)(F)c1ccc(COC2CCCN(CC3(c4ccc(Cl)cc4)CCC3)C2)cc1 (centres unmarked) | < 1000 nM
O=C(CN1CCC[C@H](COc2ccc(C(F)(F)F)cc2)C1)C1(c2ccc(Cl)cc2)CCC1 | < 1000 nM
CC(O)(CN1CCCC(COc2ccccc2)C1)c1ccc(Cl)cc1 (centres unmarked) | < 1000 nM
O=C(CN1CCCC(COc2ccc(C(F)(F)F)cc2)C1)C1(c2ccc(Cl)cc2)CCC1 (centres unmarked) | < 1000 nM
OC(CN1CCCC(CCc2ccccc2)C1)c1ccc(Cl)cc1 (centres unmarked) [compound 140] | < 100 nM
OC(CN1CCCC(COc2ccccc2)C1)c1ccc(Cl)cc1 (centres unmarked) | < 1000 nM
O=C(CN1CCC[C@@H](CCc2ccccc2)C1)c1ccc(Cl)cc1 | < 1000 nM
OC(CN1CCCC(CCc2ccc(C(F)(F)F)cc2)C1)c1ccc(Cl)cc1 (single isomer, unassigned) [compound 151] | < 1000 nM
COc1ccc(OCC2CCCN(CC3(c4ccccc4)CCC3)C2)cc1 (centres unmarked) | > 1000 nM
c1ccc(OCC2CCCN(CC3(c4ccccc4)CCC3)C2)cc1 (centres unmarked) | < 1000 nM

* * *

IC50 values, listed per item
- tested_on: dopamine transporter (Homo sapiens)
- test: DA uptake: displacement of dopamine ligands in vitro (methods of Gu et al.)
- condition_label: DA Uptake, Uptake Profile (IC50, nM), displacement of dopamine ligands in vitro
quantity_measured: IC50

compound | test_result
FC(F)(F)c1ccc(OCC2CCCN(CC3COc4ccccc4O3)C2)cc1 (single isomer, unassigned) [compound 178] | < 1000 nM
FC(F)(F)c1ccc(OCC2CCCN(CC3(c4ccc(Cl)cc4)CCOCC3)C2)cc1 (centres unmarked) [compound 159] | < 100 nM
FC(F)(F)c1ccc(OCCC2CCCN(CC3(c4ccc(Cl)cc4)CCC3)C2)cc1 (centres unmarked) [compound 39] | < 10 nM
FC(F)(F)c1ccc(COC2CCCN(CC3(c4ccc(Cl)cc4)CCC3)C2)cc1 (centres unmarked) [compound 107] | < 1000 nM
COc1ccccc1C1(C(O)CN2CCCC(COc3ccc4c(c3)OCO4)C2)CCC1 (centres unmarked) [compound 232] | < 1000 nM
FC(F)(F)c1ccc(OCC2CCCN(CC3(c4ccc(Cl)cc4)CCC3)C2)cc1 (centres unmarked) [compound 7] | < 100 nM
CC(Oc1ccc(C(F)(F)F)cc1)C1CCCN(CC2(c3ccc(Cl)cc3)CCC2)C1 (centres unmarked) [compound 99] | < 100 nM
CC(O)(C[C@H]1CCCN(CC2(c3ccc(Cl)cc3)CCC2)C1)c1ccccc1 (stereo in doubt) [compound 185] | < 1000 nM

* * *

- tested_on: UniProt:P31645
- test: 5-HT uptake: displacement of serotonin ligands in vitro (methods of Gu et al.)
- Format: binding
- condition_label: 5-HT Uptake, Uptake Profile (IC50, nM)
IC50 values, listed per item

compound | IC50
O=C(CN1CCC[C@@H](CCc2ccccc2)C1)c1ccc(Cl)cc1 [compound 145] | < 1000 nM
OCC1CCCN(CC2(c3ccc(Cl)cc3)CCC2)C1 (stereo not shown) [compound 2] | > 1000 nM
FC(F)(F)c1ccc(OCC2CCCN(CCc3ccc(-c4ccccc4)cc3)C2)cc1 (stereo not shown) [compound 181] | < 100 nM
Clc1ccc(C2(CN3CCCC(COc4ccccc4)C3)CCC2)cc1 (stereo not shown) [compound 4] | > 1000 nM
Fc1ccc(OC[C@@H]2CCCN(CC3(c4ccc(Cl)cc4)CCC3)C2)cc1 [compound 133] | > 1000 nM
FC(F)(F)c1ccc(OC[C@H]2CCCN(CC3(c4ccc(Cl)cc4)CCC3)C2)cc1 [compound 115] | > 1000 nM
FC(F)(F)c1ccc(OCC2CN(CC3(c4ccc(Cl)cc4)CCC3)CCO2)cc1 (stereo not shown) [compound 102] | > 1000 nM
FC(F)(F)c1ccc(OCC2CCCN(CC3(c4ccc(Cl)cc4)CCC3)C2)cc1 (stereo not shown) [compound 7] | > 1000 nM
FC(F)(F)c1ccc(OC[C@@H]2CCCN(CC3(c4ccc(Cl)cc4)CCC3)C2)cc1 [compound 76] | > 1000 nM
O=C(CN1CCCC(COc2ccccc2)C1)c1ccc(Cl)cc1 (stereo not shown) [compound 32] | > 1000 nM
